- Test system: Rhizoctonia solani
- Assay Overview: Fungicidal activity against Rhizoctonia solani AG-1 IA assessed as mycelial radial growth at 100 mg/l (reference value: 40 mm)
- Assay type: functional
Activity: recorded values
Number in mm, nothing else.

Observe how each entry below is paired with its result.
| Compound | Activity (mm) |
| --- | --- |
| O=[N+]([O-])c1cc(C(F)(F)F)c(Cl)c([N+](=O)[O-])c1Nc1ncc(C(F)(F)F)cc1Cl [FLUAZINAM] | 3.4 |
| CC(C)(C)C(O)(CCc1ccc(Cl)cc1)Cn1cncn1 (stereo not given) [TEBUCONAZOLE] | 0 |
| COC(=O)NC(=S)Nc1ccccc1NC(=S)NC(=O)OC [THIOPHANATE METHYL] | 0.4 |
| Clc1ccc(C2(Cn3cncn3)CC(Br)CO2)c(Cl)c1 (stereo not given) [BROMUCONAZOLE] | 0.7 |
| CO/N=C(/C(=O)OC)c1ccccc1COc1ccccc1C [KRESOXIM-METHYL] | 22 |

Using the record for c1ccc2[nH]c(-c3cscn3)nc2c1 [THIABENDAZOLE] , report its Activity.
0

Quick one: N#Cc1c[nH]cc1-c1cccc2c1OC(F)(F)O2 [FLUDIOXONIL]
0

Quick one: CC(C)NC(=O)N1CC(=O)N(c2cc(Cl)cc(Cl)c2)C1=O [IPRODIONE]
0

Quick one: CC12CC1(C)C(=O)N(c1cc(Cl)cc(Cl)c1)C2=O (stereo not given) [PROCYMIDONE]
0.6

Quick one: CCCCNC(=O)n1c(NC(=O)OC)nc2ccccc21 [BENOMYL]
0

Quick one: N#Cc1c(Cl)c(Cl)c(Cl)c(C#N)c1Cl [CHLOROTHALONIL]
4.7

Quick one: CC1COC(Cn2cncn2)(c2ccc(Oc3ccc(Cl)cc3)cc2Cl)O1 (stereo not given) [DIFENOCONAZOLE]
1.5

Quick one: COC(=O)Nc1nc2ccccc2[nH]1 [CARBENDAZIM]
0

Quick one: COC(=O)N(OC)c1ccccc1COc1ccn(-c2ccc(Cl)cc2)n1 [PYRACLOSTROBIN]
0

Quick one: CO/C=C(/C(=O)OC)c1ccccc1Oc1cc(Oc2ccccc2C#N)ncn1 [AZOXYSTROBIN]
10.3

###

- System: Rhizoctonia solani
- Assay Overview: Fungicidal activity against Rhizoctonia solani AG-1 IA assessed as inhibition of mycelial radial growth
- Format: functional, organism-based
- Condition Notes: Rhizoctonia solani, AG-1 IA; read-out: EC50
Rule: EC50 below 0.05 µg/mL gives yes (1), anything at or above gives no (0).

| Molecule | Class Assignment |
| --- | --- |
| CC(C)NC(=O)N1CC(=O)N(c2cc(Cl)cc(Cl)c2)C1=O | no (0) |

Is it true that EC50 reported for `COC(=O)Nc1nc2ccccc2[nH]1` is less than 0.05 µg/mL?
no (0)

Quick one: `COC(=O)N(OC)c1ccccc1COc1ccn(-c2ccc(Cl)cc2)n1`
no (0)

Quick one: `CO/N=C(/C(=O)OC)c1ccccc1COc1ccccc1C`
no (0)

Quick one: `CO/C=C(/C(=O)OC)c1ccccc1Oc1cc(Oc2ccccc2C#N)ncn1`
no (0)

Quick one: `O=[N+]([O-])c1cc(C(F)(F)F)c(Cl)c([N+](=O)[O-])c1Nc1ncc(C(F)(F)F)cc1Cl`
yes (1)

Quick one: `N#Cc1c[nH]cc1-c1cccc2c1OC(F)(F)O2`
yes (1)

Quick one: CC1COC(Cn2cncn2)(c2ccc(Oc3ccc(Cl)cc3)cc2Cl)O1 (centres undefined)
yes (1)

###

- Tested on: Rhizoctonia solani
- Assay Overview: Fungicidal activity against Rhizoctonia solani AG-1 IA assessed as mycelial radial growth at 10 mg/l (reference value: 40 mm)
- Assay type: functional
Activity: recorded values
Number in mm, nothing else.

Observe how each entry below is paired with its result.
| Molecule | Activity / mm |
| --- | --- |
| COC(=O)Nc1nc2ccccc2[nH]1 | 0 |
| CO/C=C(/C(=O)OC)c1ccccc1Oc1cc(Oc2ccccc2C#N)ncn1 | 13.1 |
| CO/N=C(/C(=O)OC)c1ccccc1COc1ccccc1C | 25.1 |
| N#Cc1c[nH]cc1-c1cccc2c1OC(F)(F)O2 | 0 |

Now consider the entry below.
Using the record for Clc1ccc(C2(Cn3cncn3)CC(Br)CO2)c(Cl)c1 (stereo not given) , report its Activity.
3.6

###

- Test system: Rhizoctonia solani
- Assay Overview: Fungicidal activity against Rhizoctonia solani AG-1 IA assessed as inhibition of mycelial radial growth
- Format: functional, organism-based
- Condition Notes: Rhizoctonia solani, AG-1 IA; read-out: EC50
log10 EC50: recorded values
Parameter value (number): base-10 log of EC50 in µg/mL.

| Molecule | log10 EC50 |
| --- | --- |
| COC(=O)NC(=S)Nc1ccccc1NC(=S)NC(=O)OC [THIOPHANATE METHYL] | 1.03 |
| Clc1ccc(C2(Cn3cncn3)CC(Br)CO2)c(Cl)c1 (stereo not given) [BROMUCONAZOLE] | -1.01 |
| CCCCNC(=O)n1c(NC(=O)OC)nc2ccccc21 [BENOMYL] | -0.45 |
| c1ccc2[nH]c(-c3cscn3)nc2c1 [THIABENDAZOLE] | -0.66 |

Now consider the entry below.
Using the record for N#Cc1c(Cl)c(Cl)c(Cl)c(C#N)c1Cl [CHLOROTHALONIL] , report its log10 EC50.
0.00

###

Activity: recorded values
- System: Rhizoctonia solani
- Assay Overview: Fungicidal activity against Rhizoctonia solani AG-1 IA assessed as mycelial radial growth at 10 mg/l (reference value: 40 mm)
- Type: functional
Number in mm, nothing else.

Observe how each entry below is paired with its result.
| Molecule | Activity [mm] |
| --- | --- |
| c1ccc2[nH]c(-c3cscn3)nc2c1 | 0 |
| CC(C)(C)C(O)(CCc1ccc(Cl)cc1)Cn1cncn1 (stereo not given) | 3.3 |
| CC12CC1(C)C(=O)N(c1cc(Cl)cc(Cl)c1)C2=O (stereo not given) | 1.2 |

Using the record for `O=[N+]([O-])c1cc(C(F)(F)F)c(Cl)c([N+](=O)[O-])c1Nc1ncc(C(F)(F)F)cc1Cl` , report its Activity.
4.3

Quick one: `N#Cc1c(Cl)c(Cl)c(Cl)c(C#N)c1Cl`
7.6

###

Activity: recorded values
- Test system: Rhizoctonia solani
- Assay Overview: Fungicidal activity against Rhizoctonia solani AG-1 IA assessed as mycelial radial growth at 10 mg/l (reference value: 40 mm)
- Assay type: functional
Number in mm, nothing else.

| Molecule | Readout Units | Activity |
| --- | --- | --- |
| COC(=O)N(OC)c1ccccc1COc1ccn(-c2ccc(Cl)cc2)n1 | mm | 5.4 |
| CC(C)NC(=O)N1CC(=O)N(c2cc(Cl)cc(Cl)c2)C1=O | mm | 0 |
| CC1COC(Cn2cncn2)(c2ccc(Oc3ccc(Cl)cc3)cc2Cl)O1 (stereo not given) | mm | 2.7 |
| COC(=O)NC(=S)Nc1ccccc1NC(=S)NC(=O)OC [THIOPHANATE METHYL] | mm | 20.8 |

Using the record for `CCCCNC(=O)n1c(NC(=O)OC)nc2ccccc21` , report its Activity.
0

###

- Test system: Rhizoctonia solani
- Assay Overview: Fungicidal activity against Rhizoctonia solani AG-1 IA assessed as inhibition of mycelial radial growth
- Type: functional, organism-based
- Condition Notes: Rhizoctonia solani, AG-1 IA
Quantity Kind: EC90 (µg/mL)
Number in µg/mL, nothing else.

| Molecule | EC90 [µg/mL] |
| --- | --- |
| N#Cc1c(Cl)c(Cl)c(Cl)c(C#N)c1Cl | 49.4 |
| O=[N+]([O-])c1cc(C(F)(F)F)c(Cl)c([N+](=O)[O-])c1Nc1ncc(C(F)(F)F)cc1Cl | 2.27 |
| COC(=O)Nc1nc2ccccc2[nH]1 | 8.41 |
| COC(=O)NC(=S)Nc1ccccc1NC(=S)NC(=O)OC [THIOPHANATE METHYL] | 537 |
| CC1COC(Cn2cncn2)(c2ccc(Oc3ccc(Cl)cc3)cc2Cl)O1 (centres undefined) | 1.13 |

Using the record for `CCCCNC(=O)n1c(NC(=O)OC)nc2ccccc21` , report its EC90.
17.4

Quick one: `CC(C)NC(=O)N1CC(=O)N(c2cc(Cl)cc(Cl)c2)C1=O`
11.8

Quick one: `COC(=O)N(OC)c1ccccc1COc1ccn(-c2ccc(Cl)cc2)n1`
4.67

Quick one: `N#Cc1c[nH]cc1-c1cccc2c1OC(F)(F)O2`
0.161

Quick one: `CO/N=C(/C(=O)OC)c1ccccc1COc1ccccc1C`
490

Quick one: `CO/C=C(/C(=O)OC)c1ccccc1Oc1cc(Oc2ccccc2C#N)ncn1`
33.1

Quick one: CC(C)(C)C(O)(CCc1ccc(Cl)cc1)Cn1cncn1 (centres undefined)
2.42

Quick one: Clc1ccc(C2(Cn3cncn3)CC(Br)CO2)c(Cl)c1 (centres undefined)
4.81

Quick one: `c1ccc2[nH]c(-c3cscn3)nc2c1`
10.9
